Target or system: recombinant human PD-L1 (Sino Biological Inc.) (human, UniProt Q9NZQ7 19-239)
Sequence (Q9NZQ7 19-239 limits assumed): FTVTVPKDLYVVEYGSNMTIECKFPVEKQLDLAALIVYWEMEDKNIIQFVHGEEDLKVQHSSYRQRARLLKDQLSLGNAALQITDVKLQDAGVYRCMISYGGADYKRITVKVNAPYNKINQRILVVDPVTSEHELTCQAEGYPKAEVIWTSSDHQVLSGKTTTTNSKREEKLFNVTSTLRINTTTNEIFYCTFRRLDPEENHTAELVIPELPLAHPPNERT
Protocol notes: SPR, Biacore X100
Assignment: determine reported Kd for the given binders.
Kindly answer with a numeric value in nM, unit omitted.

Please look up its Kd: humanized anti-human PD-L1 monoclonal antibody VLS15-VHS12 P2 (antibody, human IgG1, kappa, V domains shown) VH: EVQLVQSGAEVKKPGSSVKVSCKASGFNIEDTYIHWVRQAPGQGLEWMGRIDPASGNTKYDPKFQGRVTITADTSTNTAYMELSSLRSEDTAVYYCGRGLGAWFAYWGQGTLVTVSS VL: DIQMTQSPSSLSASVGDRVTITCKASQDVHTAVAWIQQKPGKSPKLLIYSASNRYTGVPSRFSGSGSGTDFTFTISSLQPEDIATYYCQQHYITPLTFGQGTKLEIKR
1.94

And the next one, humanized anti-human PD-L1 monoclonal antibody VLS10-VHS7 P1 (antibody, human IgG1, kappa, V domains shown) VH: QVQLVQSGAEVKKPGSSVKVSCTASGFNIEDTYIHWVRQAPGQGLEWMGRIDPAQGNTKYDPKFQGRVTITADTSTNTAYMELSSLRSEDTAVYYCGRGLGAWFAYWGQGTLVTVSS VL: DIQMTQSPSSLSASVGDRVTITCKASQDVHTAVAWIHQKPGKAPKLLIYSASNRYTGVPSRFSGSGSGTDFTFTISSLQPEDIATYYCQQHYITPLTFGQGTKLEIKR ?
3.16

Would you kindly repeat that for humanized anti-human PD-L1 monoclonal antibody VLS10-VHS7 P2 (antibody, human IgG1, kappa, V domains shown) VH: QVQLVQSGAEVKKPGSSVKVSCTASGFNIEDTYIHWVRQAPGQGLEWMGRIDPASGNTKYDPKFQGRVTITADTSTNTAYMELSSLRSEDTAVYYCGRGLGAWFAYWGQGTLVTVSS VL: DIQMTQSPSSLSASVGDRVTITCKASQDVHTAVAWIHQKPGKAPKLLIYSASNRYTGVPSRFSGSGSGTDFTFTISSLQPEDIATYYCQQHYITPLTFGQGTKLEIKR ?
3.23
